- TARGET_DESC: mixture of three Der p 2 specific recombinant human IgE clones H10, H12, P4E (human) (UniProt P01854)
- Sequence (P01854 other isoform, or with tags, fused parts or gaps): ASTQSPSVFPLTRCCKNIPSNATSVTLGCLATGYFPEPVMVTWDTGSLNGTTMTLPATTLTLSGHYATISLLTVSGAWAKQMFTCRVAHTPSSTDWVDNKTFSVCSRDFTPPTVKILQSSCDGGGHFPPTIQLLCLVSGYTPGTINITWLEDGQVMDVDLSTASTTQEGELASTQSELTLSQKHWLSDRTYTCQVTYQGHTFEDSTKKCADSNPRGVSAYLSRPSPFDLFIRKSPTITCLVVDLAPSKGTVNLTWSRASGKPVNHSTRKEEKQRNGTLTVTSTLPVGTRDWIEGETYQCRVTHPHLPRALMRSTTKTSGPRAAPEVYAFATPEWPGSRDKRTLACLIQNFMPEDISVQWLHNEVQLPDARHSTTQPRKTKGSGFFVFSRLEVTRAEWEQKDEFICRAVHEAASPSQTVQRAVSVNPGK
- EXPERIMENTAL_PROTOCOL: RBL-SX38 IgE displacement, FACS
Criterion: EC50 strictly under 1 nM. Met: met. Not met: not met.

{"columns": ["BINDER", "LABEL"],
 "data": [
  ["B3A1(G4S)4 (bispecific antibody) DVQLQESGGGLVQAGGSLRLSCAASGFIFRLAGMSWVRQAPGKGFEWVSGITMDGSTTNYADSVKGRFTISRDNSKNRLYLQMNSLKPEDTAVYYCARGAKGGYNDPRGQGTQVTVSGGGGSGGGGSGGGGSGGGGSEVQLLESGGGLVQPGGSLRLSCAASGFTFGNYDMAWVRQAPGKRPEWVSSIDTGGDITHYADSVKGRFTISRDNAKNTLYLQMNSLRPEDTAVYWCATDEEYALGPNEFDYYGQGTLVTVS", "not met"],
  ["D2A1(G4S)4 (bispecific antibody) DVQLQESGGGLVEAGGSLRLSCVASGRTFSGWSMGWFRQAPGKEREFVAAISWVGSWIGGTVYSNSVKGRFTISRDNARTTVYLQMNSLKPEDTAVYFCAAANSETPRIFASEYDYWGQGTQVTVSGGGGSGGGGSGGGGSGGGGSEVQLLESGGGLVQPGGSLRLSCAASGFTFGNYDMAWVRQAPGKRPEWVSSIDTGGDITHYADSVKGRFTISRDNAKNTLYLQMNSLRPEDTAVYWCATDEEYALGPNEFDYYGQGTLVTVS", "not met"]
]}

Please determine if A1B3(G4S)4 (bispecific antibody) EVQLLESGGGLVQPGGSLRLSCAASGFTFGNYDMAWVRQAPGKRPEWVSSIDTGGDITHYADSVKGRFTISRDNAKNTLYLQMNSLRPEDTAVYWCATDEEYALGPNEFDYYGQGTLVTVSGGGGSGGGGSGGGGSGGGGSDVQLQESGGGLVQAGGSLRLSCAASGFIFRLAGMSWVRQAPGKGFEWVSGITMDGSTTNYADSVKGRFTISRDNSKNRLYLQMNSLKPEDTAVYYCARGAKGGYNDPRGQGTQVTVS is below 1 nM in terms of EC50.
met

Please determine if A1A1(G4S)4 (VHH) EVQLLESGGGLVQPGGSLRLSCAASGFTFGNYDMAWVRQAPGKRPEWVSSIDTGGDITHYADSVKGRFTISRDNAKNTLYLQMNSLRPEDTAVYWCATDEEYALGPNEFDYYGQGTLVTVSGGGGSGGGGSGGGGSGGGGSEVQLLESGGGLVQPGGSLRLSCAASGFTFGNYDMAWVRQAPGKRPEWVSSIDTGGDITHYADSVKGRFTISRDNAKNTLYLQMNSLRPEDTAVYWCATDEEYALGPNEFDYYGQGTLVTVS is below 1 nM in terms of EC50.
not met

Please determine if A1B1(G4S)4 (bispecific antibody) EVQLLESGGGLVQPGGSLRLSCAASGFTFGNYDMAWVRQAPGKRPEWVSSIDTGGDITHYADSVKGRFTISRDNAKNTLYLQMNSLRPEDTAVYWCATDEEYALGPNEFDYYGQGTLVTVSGGGGSGGGGSGGGGSGGGGSQVQLQESGGGLVQTGGSLRLSCAVHGRTFSNTGMGWFRQAPGNERQFVAIISPSGTSTYYADSVKGRFTISRDPAKNTVYLQMNSLKMDDTAVYYCAASYGSNWSTLRHQRRNEYDAWGQGTQVAVS is below 1 nM in terms of EC50.
not met
